Target: hTLR9 (Homo sapiens, UniProt Q9NR96)
Construct: expressed in transfected cells; host or cells: HEK-Blue-hTLR9 cells (HEK293)
Sequence (Q9NR96 26-1032): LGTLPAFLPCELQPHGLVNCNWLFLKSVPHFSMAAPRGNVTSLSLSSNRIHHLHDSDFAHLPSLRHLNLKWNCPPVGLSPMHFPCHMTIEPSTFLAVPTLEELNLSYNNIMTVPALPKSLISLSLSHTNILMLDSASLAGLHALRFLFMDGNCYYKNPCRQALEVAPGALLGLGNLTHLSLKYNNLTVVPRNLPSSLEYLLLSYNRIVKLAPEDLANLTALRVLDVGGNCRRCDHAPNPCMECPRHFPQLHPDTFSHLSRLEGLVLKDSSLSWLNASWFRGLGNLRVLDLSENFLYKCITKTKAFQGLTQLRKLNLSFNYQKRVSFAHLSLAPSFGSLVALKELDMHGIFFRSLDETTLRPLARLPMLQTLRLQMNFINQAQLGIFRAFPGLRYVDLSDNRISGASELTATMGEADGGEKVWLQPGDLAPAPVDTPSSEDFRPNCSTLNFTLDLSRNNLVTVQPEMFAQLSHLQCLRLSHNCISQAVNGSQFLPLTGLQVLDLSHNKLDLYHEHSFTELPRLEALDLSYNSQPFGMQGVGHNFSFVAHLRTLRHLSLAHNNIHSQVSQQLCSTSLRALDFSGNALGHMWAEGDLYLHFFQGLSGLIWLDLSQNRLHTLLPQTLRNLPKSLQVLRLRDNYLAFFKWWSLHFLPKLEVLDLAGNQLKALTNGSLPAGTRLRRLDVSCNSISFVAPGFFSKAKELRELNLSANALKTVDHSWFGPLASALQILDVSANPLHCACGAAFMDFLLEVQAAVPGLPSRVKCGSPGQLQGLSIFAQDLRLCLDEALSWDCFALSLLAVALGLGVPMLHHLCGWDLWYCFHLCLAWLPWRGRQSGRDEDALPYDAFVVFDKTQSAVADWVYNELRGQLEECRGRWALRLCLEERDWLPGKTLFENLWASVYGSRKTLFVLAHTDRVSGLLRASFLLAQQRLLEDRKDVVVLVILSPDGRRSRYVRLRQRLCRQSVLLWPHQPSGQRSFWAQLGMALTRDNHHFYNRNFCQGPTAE
Assay: hTLR9 antagonism (SEAP inhibition assay) in HEK-Blue-hTLR9 (HEK293) cells, ODN-2006 stimulated
Format: cell-based
Settings: HEK-Blue hTLR9, 1 μM; SEAP, HEK-Blue-hTLR9 cells; read-out: hTLR9 inhibitory activity (% at 1 μM)
Method: hTLR9 Antagonism (SEAP Inhibition Assay) in HEK293 Cell Lines The SEAP reporter gene in HEK-Blue™-hTLR9 cells is placed under the control of the IFN-b minimal promoter fused to five NF-kB and AP-1 binding sites. The stimulation with a TLR9 ligand (ODN-2006) activates NF-kB and AP-1 which induces the production of SEAP. Levels of SEAP are determined with QUANTI-Blue™ detection medium that turns purple/blue in the presence of alkaline phosphatase. […]
Quick reference for inhibition at 1 µM among some compounds
measured.metric: inhibition at 1 µM (%)

smiles.structure | measured.metric | uom | numeric.result
Cc1nc(-c2ccc(N3CCN(C(C)C)CC3)cc2)c2cc(CCN3CCCC3)[nH]c2c1C | inhibition at 1 µM | % | 93.1
Cc1cc2c(cc(CCN3CCOCC3)n2C)c(-c2ccc(N3CCN(C(C)C)CC3)cc2F)n1 | inhibition at 1 µM | % | 100
c1cc2[nH]c(CN3CCOCC3)cc2c(-c2ccc(N3CCN(C4COC4)CC3)cc2)n1 | inhibition at 1 µM | % | 64
CC(C)N1CCN(c2ccc(-c3nccc4[nH]c(CN5CCCCC5)cc34)cc2)CC1 | inhibition at 1 µM | % | 100
CC(C)N1CCN(c2ccc(-c3nccc4[nH]c(CN5CC(F)C5)cc34)cc2)CC1 | inhibition at 1 µM | % | 100
CC(C)N1CCN(c2ccc(-c3nccc4[nH]c(CN5CCOCC5)c(Cl)c34)cc2)CC1 | inhibition at 1 µM | % | 86.1
CC(C)N1CCN(c2ccc(-c3nccc4[nH]c(CN5CC(O)C5)cc34)cc2)CC1 | inhibition at 1 µM | % | 100
O=C(O)C1CCN(c2ccc(-c3nccc4[nH]c(CN5CCOCC5)cc34)cc2)CC1 | inhibition at 1 µM | % | 21
Cc1cc2c(cc(CCN3CCOCC3)n2C)c(-c2ccc(N3CCN(C(C)C)CC3)cc2C)n1 | inhibition at 1 µM | % | 93.3
Cc1cc2c(cc(CCN3CCOCC3)n2C)c(-c2ccc(N3CCN(C(C)C)CC3)cc2)n1 | inhibition at 1 µM | % | 80
CC(C)N1CCC(n2cc(-c3nccc4[nH]c(CN5CCOCC5)cc34)cn2)CC1 | inhibition at 1 µM | % | 95.4
CC(C)N1CCN(c2ccc(-c3nccc4[nH]c(CN5CCC[C@@H]5C(=O)O)cc34)cc2)CC1 | inhibition at 1 µM | % | 89.4
OC1CCN(c2ccc(-c3nccc4[nH]c(CN5CCOCC5)cc34)cc2)CC1 | inhibition at 1 µM | % | 73.5
c1cc(-c2nccc3[nH]c(CN4CCOCC4)cc23)cc(N2CCNCC2)c1 | inhibition at 1 µM | % | 83.5
Cc1cc2[nH]c(CN3CCC4(CC3)CC(O)C4)cc2c(-c2ccc(N3CCN(C(C)C)CC3)cc2)n1 | inhibition at 1 µM | % | 100
CCN1CCN(c2ccc(-c3nc(C)cc4[nH]c(CN5CCOCC5)cc34)cc2)CC1 | inhibition at 1 µM | % | 100
